assay: Cytotoxicity against mouse NIH3T3 cells assessed as survival rate at 25 uM relative to control; type: toxicity, cell-based; settings: read-out: Survival
readout type: viability at 25 µM

Supply recorded viability at 25 µM for COCCOCCOCCN1/C(=C/C=C/C(=C/C=C/C2=[N+](CCOCCOCCOC)c3ccccc3C2(C)C)C(=O)OC)C(C)(C)c2ccccc21.[I-] here. > 60%

Supply recorded viability at 25 µM for COC(=O)C(=C\C=C\C1=[N+](C)c2ccccc2C1(C)C)/C=C/C=C1/N(C)c2ccccc2C1(C)C.[I-] here. > 60%

---

test: Photothermal stability of compound at 60 degreeC at 20 uM exposed to laser irradiation of 808 nm for 2.5 mins; format: physicochemical
readout type: Stability

Would you please look over these solved cases?
>  <smiles repr>
COCCOCCOCCN1/C(=C/C=C/C(=C/C=C/C2=[N+](CCOCCOCCOC)c3ccccc3C2(C)C)C(=O)OC)C(C)(C)c2ccccc21.[I-]

>  <Stability>
Stable

$$$$
>  <smiles repr>
COCCOCCOCCN1/C(=C/C=C/C(C#N)=C/C=C/C2=[N+](CCOCCOCCOC)c3ccccc3C2(C)C)C(C)(C)c2ccccc21.[I-]

>  <Stability>
Stable

$$$$
>  <smiles repr>
CN1/C(=C/C=C/C(C#N)=C/C=C/C2=[N+](C)c3ccccc3C2(C)C)C(C)(C)c2ccccc21.[I-]

>  <Stability>
Stable

$$$$
>  <smiles repr>
CN1/C(=C/C=C/C=C/C=C/C2=[N+](C)c3ccccc3C2(C)C)C(C)(C)c2ccccc21.[I-]

>  <Stability>
Unstable

$$$$

Supply recorded Stability for COCCOCCOCCN1/C(=C/C=C/C=C/C=C/C2=[N+](CCOCCOCCOC)c3ccccc3C2(C)C)C(C)(C)c2ccccc21.[I-] here. Unstable

Supply recorded Stability for COC(=O)C(=C\C=C\C1=[N+](C)c2ccccc2C1(C)C)/C=C/C=C1/N(C)c2ccccc2C1(C)C.[I-] here. Unstable
